Parameter: CREATININE. Scope: all listed entries.
Species on record: Rattus norvegicus
Assay: DrugMatrix - Regimen: Daily Repeat
Type: toxicity, organism-based, Sprague-Dawley
Parameters: regimen Daily Repeat, gender Male, age 6-8 weeks
Settings: in vivo, iv, 0 mg/kg, 120 h, tissue Plasma, dose level Control, time 5 day, vehicle 100 % SALINE
Lab book: enter the figure in mg/dL, no units written.

Sample answers from the record:
| Test smiles | Output unit | Value reported |
| --- | --- | --- |
| COc1cc2c3cc1Oc1cc(ccc1O)C[C@@H]1c4c(cc(OC)c(O)c4Oc4ccc(cc4)C[C@@H]3N(C)CC2)CC[N+]1(C)C.[Cl-] | mg/dL | 0.17 |
| CC[C@]1(O)C[C@H]2CN(CCc3c([nH]c4ccccc34)[C@@](C(=O)OC)(c3cc4c(cc3OC)N(C=O)[C@H]3[C@@](O)(C(=O)OC)[C@H](OC(C)=O)[C@]5(CC)C=CCN6CC[C@]43[C@@H]65)C2)C1 | mg/dL | 0.21 |

Please find the next compound below.
So what's the measured CREATININE for this one? Cc1ccc(N(CC2=NCCN2)c2cccc(O)c2)cc1
0.19

----------
Species: Rattus norvegicus
Test: DrugMatrix - Regimen: Daily Repeat
Format: toxicity, organism-based, Sprague-Dawley
Set-up: regimen Daily Repeat, gender Male, age 6-8 weeks
Settings: in vivo, po, 0 mg/kg, 72 h, tissue Blood, route oral GAVAGE, dose level Control, time 3 day, […]
Result type: ABSOLUTE SEGMENTED NEUTROPHIL (CELLS/uL)
Lab book: enter the figure in CELLS/uL, no units written.

Sample answers from the record:
| Compound | ABSOLUTE SEGMENTED NEUTROPHIL, CELLS/uL |
| --- | --- |
| Cc1oncc1C(=O)Nc1ccc(C(F)(F)F)cc1 [LEFLUNOMIDE] | 1020 |
| O=NN(CCCl)C(=O)NC1CCCCC1 | 987 |

So what's the measured ABSOLUTE SEGMENTED NEUTROPHIL for this one? CCOC(=O)C1=C(COCCN)NC(C)=C(C(=O)OC)C1c1ccccc1Cl (stereo not drawn)
987

----------
Organism: Rattus norvegicus
Assay: DrugMatrix - Regimen: Daily Repeat
Type: toxicity, organism-based, Sprague-Dawley
Parameters: regimen Daily Repeat, gender Male, age 6-8 weeks
Conditions: in vivo, po, 0 mg/kg, 120 h, tissue Plasma, route oral GAVAGE, dose level Control, time 5 day, vehicle .5 % CMC
Parameter: ALKALINE PHOSPHATASE. Scope: all listed entries.
Lab book: enter the figure in u/L, no units written.

Sample answers from the record:
| Molecule | ALKALINE PHOSPHATASE / u/L |
| --- | --- |
| CCOP(=S)(OCC)Oc1nc(Cl)c(Cl)cc1Cl [CHLORPYRIFOS] | 348.17 |
| CCCCc1oc2ccccc2c1C(=O)c1cc(I)c(OCCN(CC)CC)c(I)c1 [AMIODARONE] | 316.67 |

So what's the measured ALKALINE PHOSPHATASE for this one? Cc1ccc(/N=C/N(C)/C=N/c2ccc(C)cc2C)c(C)c1 [AMITRAZ]
373.17

So what's the measured ALKALINE PHOSPHATASE for this one? OCCN(CCO)c1nc(N2CCCCC2)c2nc(N(CCO)CCO)nc(N3CCCCC3)c2n1 [DIPYRIDAMOLE]
369.5

So what's the measured ALKALINE PHOSPHATASE for this one? Cc1nc2n(c(=O)c1CCN1CCC(c3noc4cc(F)ccc34)CC1)CCCC2 [RISPERIDONE]
316.67

So what's the measured ALKALINE PHOSPHATASE for this one? ClC(Cl)Br [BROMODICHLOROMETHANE]
377.67

So what's the measured ALKALINE PHOSPHATASE for this one? O=C(CCCN1CC=C(n2c(=O)[nH]c3ccccc32)CC1)c1ccc(F)cc1 [DROPERIDOL]
419

So what's the measured ALKALINE PHOSPHATASE for this one? Nc1ccn([C@H]2CC[C@@H](CO)O2)c(=O)n1 [ZALCITABINE]
300.33

So what's the measured ALKALINE PHOSPHATASE for this one? ClC(Br)Br [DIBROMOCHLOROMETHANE]
377.67

So what's the measured ALKALINE PHOSPHATASE for this one? COc1nc(C)nc(Cl)c1N=C1NCCN1 [MOXONIDINE]
356.67

So what's the measured ALKALINE PHOSPHATASE for this one? N=C(N)NCCN1CCCCCCC1 [GUANETHIDINE]
369.5

So what's the measured ALKALINE PHOSPHATASE for this one? C1CCC(C(CC2CCCCN2)C2CCCCC2)CC1 (centres undefined) [PERHEXILINE]
342.6

So what's the measured ALKALINE PHOSPHATASE for this one? CC(C)(C)NC(=O)[C@@H]1C[C@@H]2CCCC[C@@H]2CN1C[C@@H](O)[C@H](Cc1ccccc1)NC(=O)[C@H](CC(N)=O)NC(=O)c1ccc2ccccc2n1
336

So what's the measured ALKALINE PHOSPHATASE for this one? CCn1cc(C(=O)O)c(=O)c2cc(F)c(N3CCNCC3)cc21 [NORFLOXACIN]
373.17

----------
Species: Rattus norvegicus
Test: DrugMatrix - Regimen: Daily Repeat
Format: toxicity, organism-based, Sprague-Dawley
Set-up: regimen Daily Repeat, gender Male, age 6-8 weeks
Conditions: in vivo, po, 0 mg/kg, 72 h, tissue Blood, route oral GAVAGE, dose level Control, time 3 day, […]
Result type: PLATELET COUNT

| Compound | Result type | Value reported |
| --- | --- | --- |
| O=c1oc2ccccc2c(O)c1Cc1c(O)c2ccccc2oc1=O | PLATELET COUNT | 989 x10E3/uL |
| Cc1ccc(-c2cc(C(F)(F)F)nn2-c2ccc(S(N)(=O)=O)cc2)cc1 | PLATELET COUNT | 1274.5 x10E3/uL |
| CN(C)c1nc(N(C)C)nc(N(C)C)n1 | PLATELET COUNT | 997.5 x10E3/uL |
| CC(C)C(=O)Nc1ccc([N+](=O)[O-])c(C(F)(F)F)c1 [FLUTAMIDE] | PLATELET COUNT | 414.5 x10E3/uL |
| O=NN(CCCl)C(=O)NC1CCCCC1 | PLATELET COUNT | 997.5 x10E3/uL |

So what's the measured PLATELET COUNT for this one? Cc1noc(NS(=O)(=O)c2ccc(N)cc2)c1C
1150.33 x10E3/uL

----------
Species on record: Rattus norvegicus
Assay: DrugMatrix - Regimen: Daily Repeat
Format: toxicity, organism-based, Sprague-Dawley
Set-up: regimen Daily Repeat, gender Male, age 6-8 weeks
Conditions: in vivo, po, 0 mg/kg, 120 h, tissue Blood, route oral GAVAGE, dose level Control, time 5 day, vehicle .5 % CMC
Result type: LYMPHOCYTE (%)
Lab book: enter the figure in %, no units written.

| Molecule | LYMPHOCYTE [%] |
| --- | --- |
| CCCN1C[C@H](CSC)C[C@@H]2c3cccc4[nH]cc(c34)C[C@H]21 [PERGOLIDE] | 89 |
| COc1nc(C)nc(Cl)c1N=C1NCCN1 [MOXONIDINE] | 90.5 |

Please find the next molecule below.
So what's the measured LYMPHOCYTE for this one? CN1CCN(CCCN2c3ccccc3Sc3ccc(Cl)cc32)CC1 [PROCHLORPERAZINE]
92.83

----------
Parameter: HEMATOCRIT. Scope: all listed entries.
Species on record: Rattus norvegicus
Assay: DrugMatrix - Regimen: Daily Repeat
Assay type: toxicity, organism-based, Sprague-Dawley
Parameters: regimen Daily Repeat, gender Male, age 6-8 weeks
Conditions: in vivo, po, 0 mg/kg, 120 h, tissue Blood, route oral GAVAGE, dose level Control, time 5 day, […]
Report field: quantity (unit follows the number).

| Molecule | HEMATOCRIT |
| --- | --- |
| Cc1oncc1C(=O)Nc1ccc(C(F)(F)F)cc1 [LEFLUNOMIDE] | 33.2% |
| C[C@H]1O[C@@H](O[C@H]2[C@@H](O)C[C@H](O[C@H]3[C@@H](O)C[C@H](O[C@H]4CC[C@@]5(C)[C@H](CC[C@@H]6[C@@H]5C[C@@H](O)[C@]5(C)[C@@H](C7=CC(=O)OC7)CC[C@]65O)C4)O[C@@H]3C)O[C@@H]2C)C[C@H](O)[C@@H]1O | 33.38% |
| CC(C)C(=O)Nc1ccc([N+](=O)[O-])c(C(F)(F)F)c1 [FLUTAMIDE] | 34.25% |
| CN(C)c1nc(N(C)C)nc(N(C)C)n1 | 34.78% |

So what's the measured HEMATOCRIT for this one? Cc1noc(NS(=O)(=O)c2ccc(N)cc2)c1C
36.97%

So what's the measured HEMATOCRIT for this one? O=c1oc2ccccc2c(O)c1Cc1c(O)c2ccccc2oc1=O
36.22%
